Target: ΔF508-CFTR (Homo sapiens, UniProt P13569, DEL508-508)
Construct: host or cells: CFBE41o-, doxycycline-inducible
Sequence (P13569 with tags, fused parts or gaps DEL508-508): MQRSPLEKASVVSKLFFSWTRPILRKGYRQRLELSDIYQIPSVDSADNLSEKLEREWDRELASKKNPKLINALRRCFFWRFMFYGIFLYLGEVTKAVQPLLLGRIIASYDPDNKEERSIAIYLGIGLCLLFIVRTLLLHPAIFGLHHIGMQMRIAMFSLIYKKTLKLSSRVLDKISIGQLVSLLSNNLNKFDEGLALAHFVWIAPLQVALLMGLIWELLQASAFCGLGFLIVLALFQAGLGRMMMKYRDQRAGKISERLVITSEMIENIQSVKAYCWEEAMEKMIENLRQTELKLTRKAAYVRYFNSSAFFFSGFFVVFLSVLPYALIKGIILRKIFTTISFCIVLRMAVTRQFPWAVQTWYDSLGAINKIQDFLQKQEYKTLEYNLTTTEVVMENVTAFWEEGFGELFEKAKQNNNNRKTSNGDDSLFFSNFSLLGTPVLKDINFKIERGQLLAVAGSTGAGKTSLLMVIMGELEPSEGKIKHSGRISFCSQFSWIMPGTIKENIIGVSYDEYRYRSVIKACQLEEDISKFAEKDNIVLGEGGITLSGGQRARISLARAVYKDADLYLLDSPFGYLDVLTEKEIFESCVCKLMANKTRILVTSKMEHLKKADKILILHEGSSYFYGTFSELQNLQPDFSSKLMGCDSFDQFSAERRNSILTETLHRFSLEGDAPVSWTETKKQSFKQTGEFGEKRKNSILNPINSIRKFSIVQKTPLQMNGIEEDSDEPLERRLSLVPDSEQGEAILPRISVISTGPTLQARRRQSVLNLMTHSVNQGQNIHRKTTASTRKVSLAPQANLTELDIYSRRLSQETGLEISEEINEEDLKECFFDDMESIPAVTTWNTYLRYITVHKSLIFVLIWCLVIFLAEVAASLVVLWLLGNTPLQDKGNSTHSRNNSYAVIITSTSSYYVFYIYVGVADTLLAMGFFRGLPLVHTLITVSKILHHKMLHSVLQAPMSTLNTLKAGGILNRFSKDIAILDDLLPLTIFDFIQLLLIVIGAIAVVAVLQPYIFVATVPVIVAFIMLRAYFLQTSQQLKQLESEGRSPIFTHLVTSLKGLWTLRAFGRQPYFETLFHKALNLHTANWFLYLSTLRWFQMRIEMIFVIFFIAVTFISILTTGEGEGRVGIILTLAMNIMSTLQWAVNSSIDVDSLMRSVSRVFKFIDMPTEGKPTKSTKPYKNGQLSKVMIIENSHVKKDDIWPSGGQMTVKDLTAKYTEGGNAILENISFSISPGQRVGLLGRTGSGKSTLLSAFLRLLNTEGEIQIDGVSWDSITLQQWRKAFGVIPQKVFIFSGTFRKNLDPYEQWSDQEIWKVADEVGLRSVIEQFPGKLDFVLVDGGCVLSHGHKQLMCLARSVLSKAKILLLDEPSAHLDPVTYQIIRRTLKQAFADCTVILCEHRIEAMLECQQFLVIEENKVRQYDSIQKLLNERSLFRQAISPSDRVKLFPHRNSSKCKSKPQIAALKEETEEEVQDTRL
Experiment: CFTR cell surface levels using HRP-tagged ΔF508-CFTR expressing CFBE cells, in the presence of a co-corrector
Assay type: cell-based
Conditions: HRP-tagged ΔF508-CFTR CFBE cells, in the presence of 3 μM co-corrector; read-out: EC50
Text: Measuring CFTR Cell Surface Levels Using HRP-Tagged ΔF508-CFTR Expressing CFBE Cells The HRP-tagged ΔF508-CFTR cell assay measures the expression of CFTR-ΔF508 at the plasma membrane. […] When HRP-tagged ΔF508-CFTR is present at the plasma membrane, the HRP enzyme activity can be measured. The amount of CFTR-ΔF508 that can be rescued to the plasma membrane is correlated with the amount of functional enzyme that can be measured. […]
pEC50: −log10 of the molar value.
Each entry below lists one item and its recorded pEC50 value.

MOLECULE	MEASURED TARGET	pEC50
O=C(c1cc(N2CCC(N3CCOCC3)CC2)c2c(C3CCC3)nn(-c3ccccc3)c2n1)N1CCCCS1(=O)=O	ΔF508-CFTR (Homo sapiens, UniProt P13569, DEL508-508)	6.92
COCC1CCN(c2cc(C(=O)NS(=O)(=O)CC3COCCO3)nc3c2c(C2CCC2)nn3-c2ccccc2)CC1 (stereo not shown)	ΔF508-CFTR (Homo sapiens, UniProt P13569, DEL508-508)	7.04
COCC1CCN(c2cc(C(=O)NS(=O)(=O)C3CCOC3)nc3c2c(C2CCC2)nn3-c2ccccc2)CC1 (stereo not shown)	ΔF508-CFTR (Homo sapiens, UniProt P13569, DEL508-508)	6.98
COCC1CCN(c2cc(C(=O)NS(C)(=O)=O)nc3c2c(C(C)C)nn3C2CCCCC2)CC1	ΔF508-CFTR (Homo sapiens, UniProt P13569, DEL508-508)	6.62
CC(C)c1nn(C2CCC(F)(F)CC2)c2nc(C(=O)NS(C)(=O)=O)cc(-c3ccc(N4CCOCC4)cc3)c12	ΔF508-CFTR (Homo sapiens, UniProt P13569, DEL508-508)	6.24
CC1(COc2cc(C(=O)NS(C)(=O)=O)nc3c2c(C2CCC2)nn3-c2ccccc2)COC1	ΔF508-CFTR (Homo sapiens, UniProt P13569, DEL508-508)	6.43
CC(=O)N1CCN(C2CCN(c3cc(C(=O)NS(=O)(=O)N(C)C)nc4c3c(C3CCC3)nn4-c3ccc(F)cc3)CC2)CC1	ΔF508-CFTR (Homo sapiens, UniProt P13569, DEL508-508)	7.02
CN(C)C[C@@H](F)C1CCN(c2cc(C(=O)NS(C)(=O)=O)nc3c2c(C2CCC2)nn3-c2ccccc2)CC1	ΔF508-CFTR (Homo sapiens, UniProt P13569, DEL508-508)	6.64
CN(C)S(=O)(=O)NC(=O)c1cc(N2CCC(N3CCOCC3)CC2)c2c(C3CCC3)nn(-c3ccc4c(c3)OC(F)(F)O4)c2n1	ΔF508-CFTR (Homo sapiens, UniProt P13569, DEL508-508)	7.25
COCC1CCN(c2cc(C(=O)NS(=O)(=O)C3CCNC3)nc3c2c(C2CCC2)nn3-c2ccccc2)CC1 (stereo not shown)	ΔF508-CFTR (Homo sapiens, UniProt P13569, DEL508-508)	6.79
COC1CCN(c2cc(C(=O)NS(=O)(=O)C3CCOCC3)nc3c2c(C2CCC2)nn3-c2ccccc2)CC1	ΔF508-CFTR (Homo sapiens, UniProt P13569, DEL508-508)	6.76
CS(=O)(=O)NC(=O)c1cc(N2CCC(CF)CC2)c2c(C3CCC3)nn(-c3ccccc3)c2n1	ΔF508-CFTR (Homo sapiens, UniProt P13569, DEL508-508)	6.68
CC1(C)CN(C2CCN(c3cc(C(=O)NS(C)(=O)=O)nc4c3c(C3CCC3)nn4-c3ccc(F)cc3)CC2)CCO1	ΔF508-CFTR (Homo sapiens, UniProt P13569, DEL508-508)	7.54
COCC1CCN(c2cc(C(=O)NS(=O)(=O)c3cn(C)cn3)nc3c2c(C2CCC2)nn3-c2ccccc2)CC1	ΔF508-CFTR (Homo sapiens, UniProt P13569, DEL508-508)	6.80
O=C(NS(=O)(=O)CC(F)(F)F)c1cc(N2CCC(N3CCOCC3)CC2)c2c(C3CCC3)nn(-c3ccc(F)cc3)c2n1	ΔF508-CFTR (Homo sapiens, UniProt P13569, DEL508-508)	6.74
CC(C)c1nn(-c2ccc(F)cc2)c2nc(C(=O)NS(C)(=O)=O)cc(N3CCC(C#N)CC3)c12	ΔF508-CFTR (Homo sapiens, UniProt P13569, DEL508-508)	6.86
CN(C)S(=O)(=O)NC(=O)c1cc(N2CCC(N3CCCC(C#N)C3)CC2)c2c(C3CCC3)nn(-c3ccc(F)cc3)c2n1 (stereo not shown)	ΔF508-CFTR (Homo sapiens, UniProt P13569, DEL508-508)	7.11
COc1cccc(-n2nc(C3CCC3)c3c(N4CCC(N5CCOCC5)CC4)cc(C(=O)NS(=O)(=O)N(C)C)nc32)c1	ΔF508-CFTR (Homo sapiens, UniProt P13569, DEL508-508)	7.15
CN1CCN(S(=O)(=O)NC(=O)c2cc(OCC3CCOCC3)c3c(C4CCC4)nn(-c4ccccc4)c3n2)CC1	ΔF508-CFTR (Homo sapiens, UniProt P13569, DEL508-508)	6.74
COCCN1CCN(C2CCN(c3cc(C(=O)NS(=O)(=O)N(C)C)nc4c3c(C3CCC3)nn4-c3ccc(F)cc3)CC2)CC1	ΔF508-CFTR (Homo sapiens, UniProt P13569, DEL508-508)	6.18
CN(C)S(=O)(=O)NC(=O)c1cc(N2CCC(N3CCOCC3)CC2)c2c(C3CCC3)nn(C3CCCCC3)c2n1	ΔF508-CFTR (Homo sapiens, UniProt P13569, DEL508-508)	6.68
CCS(=O)(=O)NC(=O)c1cc(N2CCCC(OC)C2)c2c(C(C)C)nn(-c3cccc(C)c3)c2n1 (stereo not shown)	ΔF508-CFTR (Homo sapiens, UniProt P13569, DEL508-508)	6.95
CC(C)c1nn(-c2ccc(F)cc2)c2nc(C(=O)NS(C)(=O)=O)cc(OCCCN(C)C)c12	ΔF508-CFTR (Homo sapiens, UniProt P13569, DEL508-508)	5.60
COCCN(C)c1ccc(-c2cc(C(=O)NS(C)(=O)=O)nc3c2c(C(C)C)nn3-c2cccc(N(C)C)c2)cc1	ΔF508-CFTR (Homo sapiens, UniProt P13569, DEL508-508)	6.42
Cc1nn(-c2cccc(C(F)(F)F)c2)c2nc(C(=O)NS(C)(=O)=O)cc(-c3ccc(N4CCOCC4)cc3)c12	ΔF508-CFTR (Homo sapiens, UniProt P13569, DEL508-508)	6.07
CC(C)c1nn(-c2cccc(N3CC(C)(C)C3)c2)c2nc(C(=O)NS(C)(=O)=O)cc(-c3ccc(N4CCOCC4)cc3)c12	ΔF508-CFTR (Homo sapiens, UniProt P13569, DEL508-508)	6.54
Cc1nn(-c2cc(F)cc(F)c2)c2nc(C(=O)NS(C)(=O)=O)cc(-c3ccc(N4CCOCC4)cc3)c12	ΔF508-CFTR (Homo sapiens, UniProt P13569, DEL508-508)	6.24
